molecular target: Endoplasmin (Homo sapiens) (UniProt P14625); experiment: Inhibition of recombinant Grp94 (unknown origin) assessed as tracer bound at 25 uM after 24 hrs by fluorescence polarization assay relative to control; set-up: scale not given: the % may be the effect or the level left
Sequence (P14625 whole entry): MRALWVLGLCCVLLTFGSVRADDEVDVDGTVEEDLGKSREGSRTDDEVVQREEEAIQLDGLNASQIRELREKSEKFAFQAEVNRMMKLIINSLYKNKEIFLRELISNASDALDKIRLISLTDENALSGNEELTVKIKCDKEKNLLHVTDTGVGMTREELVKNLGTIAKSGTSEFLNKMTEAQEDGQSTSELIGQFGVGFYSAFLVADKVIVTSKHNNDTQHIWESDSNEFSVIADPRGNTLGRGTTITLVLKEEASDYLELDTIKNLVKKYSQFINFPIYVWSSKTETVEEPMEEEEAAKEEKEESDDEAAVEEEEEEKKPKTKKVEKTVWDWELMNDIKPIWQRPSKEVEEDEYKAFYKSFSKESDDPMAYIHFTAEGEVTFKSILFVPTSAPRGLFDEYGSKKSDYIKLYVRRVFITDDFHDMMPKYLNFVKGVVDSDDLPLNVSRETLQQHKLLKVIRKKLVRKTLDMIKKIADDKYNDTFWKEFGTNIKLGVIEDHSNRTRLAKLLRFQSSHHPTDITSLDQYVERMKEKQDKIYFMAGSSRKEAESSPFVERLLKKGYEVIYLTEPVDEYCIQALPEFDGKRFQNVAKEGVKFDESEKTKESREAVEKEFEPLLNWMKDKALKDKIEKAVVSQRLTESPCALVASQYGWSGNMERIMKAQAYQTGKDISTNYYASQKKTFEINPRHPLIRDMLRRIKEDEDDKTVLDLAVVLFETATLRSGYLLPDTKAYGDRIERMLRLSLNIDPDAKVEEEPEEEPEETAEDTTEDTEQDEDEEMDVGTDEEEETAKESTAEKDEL
measured.metric: Activity (%)

>>> df
                                smiles_text                         target_under_test  data_value
0  COC(=O)c1c(O)cc(O)c(Cl)c1CCC(=O)Nc1cccc(C(F)(F)F)c1  Endoplasmin (Homo sapiens) (UniProt P14625)        39.4
1  COC(=O)c1c(O)cc(O)c(Cl)c1CCC(=O)Nc1ccc(Br)c(Cl)c1  Endoplasmin (Homo sapiens) (UniProt P14625)        71.4
2  COC(=O)c1c(O)cc(O)c(Cl)c1CCC(=O)Nc1cccc(Cl)c1Br  Endoplasmin (Homo sapiens) (UniProt P14625)        24.9
